Reference source for all entries: PubChem BioAssay (NCATS)

Assay: qHTS of pediatric cancer cell lines to identify multiple opportunities for drug repurposing: Confirmatory screen for RD cells (AID 1347124);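 further: cells exposed to compound for 48 h before viability readout; nearly all actives have a fitted effect of over 65% in size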
Details: RD rhabdomyosarcoma cell viability; series mostly up to 45.9 µM
Procedure: Drug repurposing or repositioning has been offered as a strategy for drug development in oncology programs. […] [1] Shen, M et al. Quantitative high-throughput phenotypic screening of pediatric cancer cell lines identifies multiple opportunities for drug repurposing. […] Cells were assayed in growth media at a density of 500-1,000 cells/well. […] After a 15 min incubation at room temperature, samples were analyzed for luminescence intensity using a ViewLux High-throughput CCD imager equipped with clear filters.
Inconclusive results are not listed. Calls of active or inactive are those of the source. The call rests on the fitted dose curve; in most records, active means well fitted cell-killing curve with a large enough effect; inconclusive means small, poorly fitted or top-dose-only effect, or effect the other way; inactive means no such curve, though single readings can be large or run the other way.
Choose the fitting class; nothing outside True (active), False (inactive) is accepted.

Examples from the recorded data:
- compound: "Cc1c(Cn2c(C)nc3c(C(=O)O)cc(N4CCOCC4)cc32)cccc1C(F)(F)F"
  cat: "False"
- compound: "CC(C)(C)c1cc(C(C)(C)C)c(NC(=O)c2c[nH]c3ccccc3c2=O)cc1O"
  cat: "True"
- compound: "C#Cc1cccc(Nc2ncnc3cc(OC)c(OCCCCCCC(=O)NO)cc23)c1"
  cat: "True"
- compound: "CCN1CCN(Cc2ccc(-c3cc4c(N[C@H](C)c5ccccc5)ncnc4[nH]3)cc2)CC1"
  cat: "True"
- compound: "COc1ccc(C=Cc2cc(OC)c(OC)c(OC)c2)cc1O"
  cat: "True"
- compound: "CNC(=O)c1nn(C)c2c1C(C)(C)Cc1cnc(Nc3ccc(N4CCN(C)CC4)cc3)nc1-2"
  cat: "True"
- compound: "Cc1[nH]c2ccccc2c1CCNCc1ccc(C=CC(=O)NO)cc1"
  cat: "False"
- compound: "Nc1ccccc1NC(=O)c1ccc(CNc2nccc(-c3cccnc3)n2)cc1"
  cat: "True"

Q) Assay outcome for `COc1cc(Nc2ncc(F)c(Nc3ccc4c(n3)N(COP(=O)(O)O)C(=O)C(C)(C)O4)n2)cc(OC)c1OC` : what was it?
A) True

Q) What is the recorded call for this compound in the test? `CCn1cc(-c2ccnc3[nH]c(-c4cccc(CN(C)C)c4)cc23)c(-c2ccc(NC(=O)N(C)C)cc2)n1`
A) True

Q) What classification did `COc1cc2c(Oc3ccc(NC(=O)C4(C(=O)Nc5ccc(F)cc5)CC4)cc3F)ccnc2cc1OCCCN1CCOCC1` end up with in this test?
A) True

Q) Hi, sorry to bother you, what did the test record for `CN1CCN(Cc2ccc(NC(=O)Nc3ccc(Oc4cc(NC(=O)C5CC5)ncn4)cc3)cc2C(F)(F)F)CC1` ?
A) True

* * *

assay: qHTS drug screen for cell cycle checkpoint inhibitors in PARPi-resistant BRCA-mutant ovarian cancer cell lines. (AID 1963452); conditions: PEO1/OlaR viability, CellTiter-Glo luminescence, 96 h; measured here: PEO1 parental Z-AUC; stronger effect = lower value
readout label: Z-AUC
# respond with the number and nothing more

Here is how some molecules turned out for Z-AUC.
- molecule: "CN(c1ncccc1CNc1nc(Nc2ccc3c(c2)CC(=O)N3)ncc1C(F)(F)F)S(C)(=O)=O"
  reported: -0.701
- molecule: "Cn1cc(-c2[nH]c3cc(NC(=O)[C@H](N)C4CCCCC4)cc4c3c2C=NNC4=O)cn1"
  reported: -0.184
- molecule: "Cc1cn2cc(C(=O)N(C)CCO)cc(N[C@@H]3CCOc4cccc(C)c43)c2n1"
  reported: 1.4

The recorded Z-AUC for entry `Cc1ccc(CN2CCNCC2)cc1NC(=O)CNc1ccc(F)c(F)c1` equals -0.179

Note to self: Z-AUC recorded for `Cc1nc(N)ncc1-c1nc(N2CCOCC2)c2sc(C(C)(C)O)cc2n1` was 0.219

Entry `CC(C)(O)CCc1ccc(OCc2cc(-c3cccc(OC(F)F)c3)c3ncccc3c2)cc1` ; Z-AUC = 0.116

Record `OCc1ccc(-c2ccc(-c3ccc(CO)s3)o2)s1` . Reported Z-AUC: 1.79

Briefly, Z-AUC measured for CC1(C)CC(=O)c2c(C(F)(F)F)nn(-c3ccc(C(N)=O)c(NC4CCC(OC(=O)CN)CC4)c3)c2C1 (stereo not drawn) : -0.877

Measured Z-AUC, `CC(C)(C)c1cc(C(C)(C)C)c(NC(=O)c2c[nH]c3ccccc3c2=O)cc1O` : 1.35

Per the records, this molecule ( `Cc1cc(Nc2ncnc3ccc(-c4ccc(CNCCS(C)(=O)=O)o4)cc23)ccc1Oc1ccn2ncnc2c1` ) has Z-AUC equal to 0.912

Reported Z-AUC of `NC(=O)c1cccc2cn(-c3ccc([C@@H]4CCCNC4)cc3)nc12` : -0.0942

Sure, the documented Z-AUC for `CNC(=O)CN1CCC(Oc2cc3c(Nc4cccc(Cl)c4F)ncnc3cc2OC)CC1` is 0.682

Looking up `COC(=O)Nc1nc2ccc(C(=O)c3ccc(F)cc3)cc2[nH]1` , I see its Z-AUC listed as -1.33

# molecule `CS(=O)(=O)c1ccc(-c2cnc(N)c(C(=O)Nc3ccccc3)n2)cc1` ; its Z-AUC = -0.901

Lab note: `C=CC(=O)Nc1cc2c(Nc3ccc(F)c(Cl)c3)ncnc2cc1C#CC(C)(C)N1CCN(C)CC1` gave Z-AUC of -0.15

Per the record, `O=c1[nH]nc(Sc2ncc([N+](=O)[O-])s2)n1-c1ccc2c(c1)OCCO2` has Z-AUC of 0.187

The value of Z-AUC measured for the molecule `C=CC(=O)Nc1cccc(Oc2nc(Nc3ccc(N4CCN(C)CC4)cc3OC)ncc2Cl)c1` turned out to be -0.879

Lookup result for `Clc1ccc2ncc(-c3cccc(NC4CNC4)n3)n2c1` ; measured Z-AUC: 0.128

Record `COC(=O)Nc1ccc(-c2nc(N3CCOCC3)c3cnn(C4CCN(Cc5cccnc5)CC4)c3n2)cc1` , field Z-AUC: -0.853

get_value(item= `CCCCCN(CCC12CC3CC(CC(C3)C1)C2)C(=O)NCCCc1ccncc1` , readout=Z-AUC) returns 0.162

GET /value?item= `O=C(Nc1cn[nH]c1-c1nc2ccc(CN3CCOCC3)cc2[nH]1)NC1CC1` &field=Z-AUC returns -1.15

Please fill in: Z-AUC reported for `Nc1cc(C(F)(F)F)c(-c2cc(N3CCOCC3)nc(N3CCOCC3)n2)cn1` = -1.2

GET /value?item= `COCCn1c2c([n+](Cc3cnccn3)c1C)C(=O)c1ccccc1C2=O` &field=Z-AUC returns -3.26

Notebook: `COc1ccc(-n2nc(C(N)=O)c3c2C(=O)N(c2ccc(N4CCCCC4=O)cc2)CC3)cc1` , Z-AUC read as 0.968
